Tested on: IgE antibodies of allergic patients
Assay: EAST inhibition test (IgE reactivity / allergenicity)
Assay type: binding, human
Conditions: relative to native Phl p 5b at 25% inhibition; individual serum II/17
Examples of molecules with documented Allergenic potency (Prel) 25% follow.
Give only the figure.

A selection of reference data follows.
Molecule	Recorded measurement
DM1: deletion mutant of rPhl p 5b (ΔK50-P132, D49→L), SEQ ID NO 91 (protein) ADAGYAPATPAAAGAAAGKATTEEQKLIEDINVGFKAAVAAAASVPAALAGELQIIDKIDAAFKVAATAAATAPADDKFTVFEAAFNKAIKESTGGAYDTYKCIPSLEAAVKQAYAATVAAAPQVKYAVFEAALTKAITAMSEVQKVSQPATGAATVAAGAATTAAGAASGAATVAAGGYKV	0.033
rPhl p 5b point mutant PM1 (N32D, D49L, K50A) (protein) ADAGYAPATPAAAGAAAGKATTEEQKLIEDIDVGFKAAVAAAASVPAALAFKTFEAAFTSSSKAAAAKAPGLVPKLDAAYSVAYKAAVGATPEAKFDSFVASLTEALRVIAGALEVHAVKPVTEEPGMAKIPAGELQIIDKIDAAFKVAATAAATAPADDKFTVFEAAFNKAIKESTGGAYDTYKCIPSLEAAVKQAYAATVAAAPQVKYAVFEAALTKAITAMSEVQKVSQPATGAATVAAGAATTAAGAASGAATVAAGGYKV	0.336

Next, consider the following molecule.
Inquiry: Form field: reported Allergenic potency (Prel) 25% of rPhl p 5b point mutant PM3 (A13C) (protein) ADAGYAPATPAACGAAAGKATTEEQKLIEDINVGFKAAVAAAASVPAADKFKTFEAAFTSSSKAAAAKAPGLVPKLDAAYSVAYKAAVGATPEAKFDSFVASLTEALRVIAGALEVHAVKPVTEEPGMAKIPAGELQIIDKIDAAFKVAATAAATAPADDKFTVFEAAFNKAIKESTGGAYDTYKCIPSLEAAVKQAYAATVAAAPQVKYAVFEAALTKAITAMSEVQKVSQPATGAATVAAGAATTAAGAASGAATVAAGGYKV
Reply text: 0.855

From: patent US6919086B1
